// provenance: paper PMC9348634

ASSAYED_SYSTEM: terminal deoxynucleotidyltransferase (TdT) (human, UniProt P04053 1-509)
Sequence (P04053 whole entry): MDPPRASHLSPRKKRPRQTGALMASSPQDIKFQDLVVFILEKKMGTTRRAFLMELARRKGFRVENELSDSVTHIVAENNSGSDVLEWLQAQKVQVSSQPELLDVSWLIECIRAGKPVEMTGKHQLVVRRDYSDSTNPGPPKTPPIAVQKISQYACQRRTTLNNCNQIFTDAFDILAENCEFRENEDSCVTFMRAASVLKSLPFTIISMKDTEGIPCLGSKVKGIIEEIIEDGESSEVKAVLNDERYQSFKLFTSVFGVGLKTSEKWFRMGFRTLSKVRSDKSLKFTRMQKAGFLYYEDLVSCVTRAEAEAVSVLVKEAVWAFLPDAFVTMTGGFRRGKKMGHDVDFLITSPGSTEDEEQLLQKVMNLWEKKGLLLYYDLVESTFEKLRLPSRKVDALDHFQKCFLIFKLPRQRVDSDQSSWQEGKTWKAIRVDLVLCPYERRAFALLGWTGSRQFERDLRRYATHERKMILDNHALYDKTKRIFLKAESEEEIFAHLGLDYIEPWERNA
TEST_METHOD_NOTES: MST; 5.0 mM Mg2+; MST with 5.0 mM Mg2+ (Mn2+ or Co2+ in other runs, concentration not given); buffer, salt, pH and temperature not in the material
CONDITION_INFO: label: 5'-FAM; single strand
MEASURED_ENDPOINT: Kd (µM)
Field format: number, assumed µM, no unit text.

Entry GGAAGA (ssDNA) [DNA primer FAM-GGAAGA] has what Kd?
4.6
